Attribution: the supplement of paper PMC10567573

B1: PDS5B (parent)
chain: ITYPPGVKEISDKISKEEMVRRLK

- Variants of: B1
- testDetails: protein stability index of a GFP-peptide fusion (GPS, HEK-293T) (PSI 1-6); higher = more stable;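 also: lentivirally expressed fusions sorted by FACS into six bins by GFP to DsRed ratio, PSI derived from sequencing read proportions per bin multiplied by bin number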
- conditionParameters: c terminus: a fixed tail appended
I would appreciate it if you labelled entries T when protein stability index is 3 or higher, otherwise F.

seqText: ITYPVGVKEISDKISKEEMVRRLK [P5V]
labelValue: T

seqText: PTYPPGVKEISDKISKEEMVRRLK [I1P]
labelValue: T

In: In plain terms: is recorded protein stability index at least 3 for ITYPPGVKIISDKISKEEMVRRLK [E9I] ?
Out: T

In: Okay, and ITYPPGVKEISDKISKEENVRRLK [M19N] ?
Out: T

In: Okay, and ITYPPEVKEISDKISKEEMVRRLK [G6E] ?
Out: T

In: Okay, and ITYPPGVFEISDKISKEEMVRRLK [K8F] ?
Out: T

In: Okay, and ITYPPGVKEISDKISKEGMVRRLK [E18G] ?
Out: T

In: Okay, and ITYPPGVKEISDWISKEEMVRRLK [K13W] ?
Out: F
